MIC reference
System: methicillin-resistant Staphylococcus aureus SA 630
Experiment: In vitro antibacterial susceptibility testing (broth dilution MIC)
Format: cell-based
Conditions: MRSA, clinical isolate SA 630, 24 h, 37 °C
measured metric: MIC (µM)

{"compound structure": "O=C(Nc1ccc(Br)cc1)c1c(O)ccc2ccccc12", "tgt": "methicillin-resistant Staphylococcus aureus SA 630", "limit operator": "=", "numeric result": 47}
{"compound structure": "O=C(Nc1cccc(Cl)c1)c1c(O)ccc2ccccc12", "tgt": "methicillin-resistant Staphylococcus aureus SA 630", "limit operator": ">", "numeric result": 860}
{"compound structure": "O=C(Nc1ccccc1C(F)(F)F)c1c(O)ccc2ccccc12", "tgt": "methicillin-resistant Staphylococcus aureus SA 630", "limit operator": "=", "numeric result": 97.1}
{"compound structure": "O=C(Nc1ccc(Cl)cc1)c1c(O)ccc2ccccc12", "tgt": "methicillin-resistant Staphylococcus aureus SA 630", "limit operator": ">", "numeric result": 860}
{"compound structure": "O=C(Nc1ccccc1Cl)c1c(O)ccc2ccccc12", "tgt": "methicillin-resistant Staphylococcus aureus SA 630", "limit operator": ">", "numeric result": 860}
{"compound structure": "O=C(Nc1cccc(Br)c1)c1c(O)ccc2ccccc12", "tgt": "methicillin-resistant Staphylococcus aureus SA 630", "limit operator": ">", "numeric result": 748}
{"compound structure": "O=C(Nc1ccccc1[N+](=O)[O-])c1c(O)ccc2ccccc12", "tgt": "methicillin-resistant Staphylococcus aureus SA 630", "limit operator": "=", "numeric result": 104}

* * *

Read-out record for Mycobacterium marinum CAMP 5644: MIC
measured metric: MIC

{"molecule": "NNC(=O)c1ccncc1 [INH, isoniazid, reference compound]", "measured metric": "MIC", "result": "467 µM"}
{"molecule": "O=C(Nc1ccc(Cl)cc1)c1c(O)ccc2ccccc12", "measured metric": "MIC", "result": "> 860 µM"}
{"molecule": "O=C(Nc1cccc(F)c1)c1c(O)ccc2ccccc12", "measured metric": "MIC", "result": "> 910 µM"}
{"molecule": "COc1ccccc1NC(=O)c1c(O)ccc2ccccc12", "measured metric": "MIC", "result": "> 873 µM"}
{"molecule": "O=C(Nc1cccc([N+](=O)[O-])c1)c1c(O)ccc2ccccc12", "measured metric": "MIC", "result": "~52 µM"}

* * *

Read-out record for Staphylococcus aureus ATCC 29213: MIC

{"compound": "O=C(Nc1ccc(C(F)(F)F)cc1)c1c(O)ccc2ccccc12 [Compound 7c]", "limit operator": ">", "MIC, µM": 748}
{"compound": "Cc1cccc(NC(=O)c2c(O)ccc3ccccc23)c1 [Compound 3b]", "limit operator": "=", "MIC, µM": 231}
{"compound": "O=C(Nc1ccccc1Br)c1c(O)ccc2ccccc12 [Compound 6a]", "limit operator": ">", "MIC, µM": 748}
{"compound": "O=C(Nc1ccccc1C(F)(F)F)c1c(O)ccc2ccccc12 [Compound 7a]", "limit operator": "=", "MIC, µM": 97.1}
{"compound": "O=C(Nc1cccc(Cl)c1)c1c(O)ccc2ccccc12 [Compound 5b]", "limit operator": ">", "MIC, µM": 860}
{"compound": "O=C(Nc1cccc(C(F)(F)F)c1)c1c(O)ccc2ccccc12 [Compound 7b]", "limit operator": ">", "MIC, µM": 748}
{"compound": "CC1(C)S[C@@H]2[C@H](NC(=O)[C@H](N)c3ccccc3)C(=O)N2[C@H]1C(=O)O [APC, ampicillin, reference compound]", "limit operator": "=", "MIC, µM": 5.7}
{"compound": "O=C(Nc1ccccc1F)c1c(O)ccc2ccccc12 [Compound 4a]", "limit operator": "=", "MIC, µM": 228}
{"compound": "O=C(Nc1ccc(Cl)cc1)c1c(O)ccc2ccccc12 [Compound 5c]", "limit operator": "=", "MIC, µM": 215}
{"compound": "Cc1ccc(NC(=O)c2c(O)ccc3ccccc23)cc1 [Compound 3c]", "limit operator": "=", "MIC, µM": 231}
{"compound": "O=C(Nc1ccc(F)cc1)c1c(O)ccc2ccccc12 [Compound 4c]", "limit operator": ">", "MIC, µM": 910}
{"compound": "O=C(Nc1cccc(Br)c1)c1c(O)ccc2ccccc12 [Compound 6b]", "limit operator": ">", "MIC, µM": 748}
{"compound": "O=C(Nc1ccc(Br)cc1)c1c(O)ccc2ccccc12 [Compound 6c]", "limit operator": "=", "MIC, µM": 47}
{"compound": "O=C(Nc1ccccc1Cl)c1c(O)ccc2ccccc12 [Compound 5a]", "limit operator": "=", "MIC, µM": 215}
{"compound": "O=C(Nc1cccc(F)c1)c1c(O)ccc2ccccc12 [Compound 4b]", "limit operator": "=", "MIC, µM": 228}
{"compound": "COc1ccccc1NC(=O)c1c(O)ccc2ccccc12 [Compound 2a]", "limit operator": ">", "MIC, µM": 873}

* * *

Test system: M. smegmatis ATCC 700084
measured metric: MIC

{"compound structure": "O=C(Nc1ccccc1F)c1c(O)ccc2ccccc12", "measured metric": "MIC", "result": "228 µM"}
{"compound structure": "O=C(Nc1ccc(Br)cc1)c1c(O)ccc2ccccc12", "measured metric": "MIC", "result": "187 µM"}
{"compound structure": "O=C(Nc1ccc(C(F)(F)F)cc1)c1c(O)ccc2ccccc12", "measured metric": "MIC", "result": "> 748 µM"}
{"compound structure": "O=C(Nc1cccc(Br)c1)c1c(O)ccc2ccccc12", "measured metric": "MIC", "result": "> 748 µM"}
{"compound structure": "Cc1cccc(NC(=O)c2c(O)ccc3ccccc23)c1", "measured metric": "MIC", "result": "231 µM"}

* * *

Tested on: methicillin-resistant Staphylococcus aureus SA 630
Experiment: In vitro antibacterial susceptibility testing (broth dilution MIC)
Assay type: cell-based
Settings: MRSA, clinical isolate SA 630, 24 h, 37 °C
MIC reference
measured metric: MIC (µM)

{"compound": "O=C(Nc1cccc(C(F)(F)F)c1)c1c(O)ccc2ccccc12", "limit operator": "=", "numeric result": 374}
{"compound": "O=C(Nc1ccc(C(F)(F)F)cc1)c1c(O)ccc2ccccc12", "limit operator": "=", "numeric result": 94}
{"compound": "Cc1cccc(NC(=O)c2c(O)ccc3ccccc23)c1", "limit operator": "=", "numeric result": 231}
{"compound": "COc1ccccc1NC(=O)c1c(O)ccc2ccccc12", "limit operator": ">", "numeric result": 873}
{"compound": "O=C(Nc1cccc(F)c1)c1c(O)ccc2ccccc12", "limit operator": ">", "numeric result": 910}
{"compound": "O=C(Nc1ccccc1F)c1c(O)ccc2ccccc12", "limit operator": "=", "numeric result": 455}
{"compound": "CC1(C)S[C@@H]2[C@H](NC(=O)[C@H](N)c3ccccc3)C(=O)N2[C@H]1C(=O)O [APC, ampicillin, reference compound]", "limit operator": ">", "numeric result": 45.8}
{"compound": "O=C(Nc1ccccc1Br)c1c(O)ccc2ccccc12", "limit operator": ">", "numeric result": 748}
{"compound": "O=C(Nc1ccc(F)cc1)c1c(O)ccc2ccccc12", "limit operator": ">", "numeric result": 910}

* * *

Assay: Lipophilicity determination by RP-HPLC (capacity factor log k)
Assay type: physicochemical
Conditions: isocratic, MeOH 60%/H2O 40%, C18
measured metric: log k

{"compound": "CC1(C)S[C@@H]2[C@H](NC(=O)[C@H](N)c3ccccc3)C(=O)N2[C@H]1C(=O)O [APC, ampicillin, reference compound]", "numeric result": 0.4337}
{"compound": "O=C(Nc1ccccc1C(F)(F)F)c1c(O)ccc2ccccc12", "numeric result": 0.8353}
{"compound": "O=C(Nc1ccccc1F)c1c(O)ccc2ccccc12", "numeric result": 0.5664}
{"compound": "O=C(Nc1ccccc1)c1c(O)ccc2ccccc12", "numeric result": 1.3016}
{"compound": "O=C(Nc1ccc(Cl)cc1)c1c(O)ccc2ccccc12", "numeric result": 0.7908}
{"compound": "O=C(Nc1ccccc1Br)c1c(O)ccc2ccccc12", "numeric result": 0.9509}
{"compound": "O=C(Nc1cccc(Cl)c1)c1c(O)ccc2ccccc12", "numeric result": 0.7904}
{"compound": "O=C(Nc1ccc(C(F)(F)F)cc1)c1c(O)ccc2ccccc12", "numeric result": 0.9994}
{"compound": "O=C(Nc1cccc([N+](=O)[O-])c1)c1c(O)ccc2ccccc12", "numeric result": 0.9187}
{"compound": "O=C(Nc1cccc(C(F)(F)F)c1)c1c(O)ccc2ccccc12", "numeric result": 0.9411}

* * *

Test system: M. smegmatis ATCC 700084
Assay: In vitro antimycobacterial evaluation (broth dilution MIC)
Assay type: cell-based, Mycobacterium smegmatis
Conditions: Mycolicibacterium smegmatis, ATCC700084, 72 h; M. smegmatis ATCC 700084, 3 days, 37 °C

{"compound structure": "O=C(Nc1cccc(Cl)c1)c1c(O)ccc2ccccc12", "limit operator": "=", "MIC (µM)": 215}
{"compound structure": "O=C(Nc1cccc(C(F)(F)F)c1)c1c(O)ccc2ccccc12", "limit operator": ">", "MIC (µM)": 748}
{"compound structure": "O=C(Nc1ccccc1Cl)c1c(O)ccc2ccccc12", "limit operator": "=", "MIC (µM)": 107}
{"compound structure": "O=C(Nc1ccc(Cl)cc1)c1c(O)ccc2ccccc12", "limit operator": ">", "MIC (µM)": 860}
{"compound structure": "COc1cccc(NC(=O)c2c(O)ccc3ccccc23)c1", "limit operator": "=", "MIC (µM)": 218}
{"compound structure": "O=C(Nc1ccccc1C(F)(F)F)c1c(O)ccc2ccccc12", "limit operator": "=", "MIC (µM)": 386}
{"compound structure": "COc1ccccc1NC(=O)c1c(O)ccc2ccccc12", "limit operator": ">", "MIC (µM)": 873}
{"compound structure": "O=C(Nc1cccc(F)c1)c1c(O)ccc2ccccc12", "limit operator": ">", "MIC (µM)": 910}
{"compound structure": "O=C(Nc1ccccc1)c1c(O)ccc2ccccc12", "limit operator": "=", "MIC (µM)": 486}
{"compound structure": "O=C(Nc1ccc(F)cc1)c1c(O)ccc2ccccc12", "limit operator": ">", "MIC (µM)": 910}
{"compound structure": "O=C(Nc1ccccc1Br)c1c(O)ccc2ccccc12", "limit operator": ">", "MIC (µM)": 748}
